Consider the following compounds and their measured growth inhibition readings.
# assay protocol: NCI Yeast Anticancer Drug Screen. Data for the bub3 strain (AID 167)
# condition parameters: S. cerevisiae bub3 mutant strain, at 50.0 µM, active compounds read high
This is part of a sample that, as a whole, favours compounds with a hit. Of some 79,000 tested, about 15% had one in any assay.

compound | growth inhibition (%)
COC1=NO[C@@H]2C=CO[C@H]12 | 8.35
CCOC(=O)C1CN(CCCN2CC(C(=O)OCC)C(=O)C2=O)C(=O)C1=O (centres undefined) | 9.95
Nc1n[n+]([O-])c2cc([N+](=O)[O-])ccc2[n+]1[O-] | 75.9
COc1ccc2c(c1)CC1c3[nH]c4ccccc4c3CCN1C2 (centres undefined) | 19.1
N#CNS(=O)(=O)c1ccccc1 | 12.2
Oc1ccc(-c2ccc(O)cc2O)c(O)c1 | 0.35
COc1ccc(-c2cc(C(O)C3CCCCN3)c3ccccc3n2)cc1 (centres undefined) | -31.1
C=C1C(=O)O[C@@H]2[C@H]1CC[C@H](C)[C@]1(O)CCC(=O)[C@@]21C | -4.75
c1ccc(CNCc2ccccc2)cc1 | 18.6
CCO/C=C1/C(=O)N(C)c2c1c(=O)n(C)c(=O)n2C | -18.1
NC(=O)N1CCCC1 | 9.45
CC(C#N)c1cn(S(=O)(=O)c2ccccc2)c2ccccc12 (centres undefined) | 52.7
COc1cc(/C(=C\c2ccccc2N)C(=O)O)cc(Br)c1OC | 0
CCOC(=O)CCc1c[nH]c2ccccc12 | 0.2
CC1OC(OC2C(Oc3cc(O)c4c(=O)cc(-c5ccc(O)cc5)oc4c3)OC(CO)C(O)C2O)C(O)C(O)C1O (centres undefined) | 6.35
ClC1CCC(c2ccccc2)CC1 (centres undefined) | -11.2
CSc1ccc(C(=C=C=C(c2ccc(SC)s2)c2ccc(SC)s2)c2ccc(SC)s2)s1 | -31.9
CC#CCOC(=O)c1ccccc1OC(C)=O | 26.9
CCN(CC)CCC(O)(Cc1ccccc1)c1cccc(Cl)c1 (centres undefined) | 16.6
O=C(CCC(=O)Nc1ccc(Cl)c(Cl)c1)Nc1ccc(Cl)c(Cl)c1 | 78.2
CCC(c1ccc(OCc2ccccc2)cc1)c1cc2c(cc1OCCO)OCO2 (centres undefined) | 39.7
O=C1CS(=O)(=O)c2ccccc21 | -8.8
CCOC(=O)c1ccc(NCc2ccc3oc(=O)c(-c4ccccc4)nc3c2)cc1 | -17.7
Cc1cc(OCc2ccc3ccccc3c2)ccc1Nc1cc(=O)[nH]c(=O)[nH]1 | 33.6
CC(C)(C)C(=O)Nc1c(Cl)c(C2CC2)nn1-c1ccccc1 | 22.4
CC(CC(=O)Nc1ccccc1)C(=O)O (centres undefined) | 5.55
C=C(C)C(=O)OCC(CC)(COC(=O)C(=C)C)COC(=O)C(=C)C | 18.6
COc1ccc(C(=O)N=Nc2ccccc2)cc1 | 3.35
N#CCCCCCCC(N)=O | -5.6
C(#CCN1CCOCC1)CCCN1CCOCC1 | -15.2
O=C1C=CC(=O)N1n1c(-c2ccccc2)n[nH]c1=O | -8
Cc1c(C)c(C)c2cc3c(C)c(C)c(C)c(C)c3cc2c1C | 6.45
O=C(O)COc1ccccc1F | 3
CC(=O)OCC1OC(n2cc([N+](=O)[O-])c(=O)[nH]c2=O)C(OC(C)=O)C(OC(C)=O)C1OC(C)=O (centres undefined) | 12.8
